Source listed as patent US20170152226A1.

For each of the molecules below, state its pIC50.
System: SK-Mel-28
PROCEDURE TEXT: Anti-proliferative activity, cell-titre luminescent viability assay
Format: cell-based
CONDITION DESCRIPTION: Homo sapiens, SK-MEL-28; 72 hours; 0.1, 0.3, 1, 3, 10 and 30 μM; nonlinear regression sigmoidal dose-response (EC50); read-out: IC50 Melanoma SK-Mel-28
Please note pIC50 is a logarithmic value: minus log10 of concentration in mol/L. Answer with that number alone.

The recorded pIC50 for entry COc1cccc(CCN2CCN(C(=O)c3ccc(Oc4ccc5c(c4)c(C)c(C)n5CCCN4CCN(C)CC4)cc3)CC2)c1 equals 5.62

The recorded pIC50 for entry Cc1c(C)n(CCCN2CCN(C)CC2)c2ccc(Cc3ccc(C(=O)N4CCN(CCc5ccc6ccccc6c5)CC4)cc3)cc12 equals 5.85

The recorded pIC50 for entry COc1ccc2cccc(CCN3CCN(C(=O)c4ccc(Cc5ccc6c(c5)c(C)c(C)n6CCCN5CCN(C)CC5)cc4)CC3)c2c1 equals 5.49

The recorded pIC50 for entry Cc1c(C)n(CCCN2CCN(C)CC2)c2ccc(Cc3cccc(C(=O)N4CCN(CCc5ccc6ccccc6c5)CC4)c3)cc12 equals 5.32

The recorded pIC50 for entry Cc1c(C)n(CCCN2CCN(C)CC2)c2ccc(Cc3ccc(C(=O)N4CCN(CCc5ccc6c(c5)OCO6)CC4)cc3)cc12 equals 5.39

The recorded pIC50 for entry COc1ccc2cccc(CCN3CCN(C(=O)c4cccc(Cc5ccc6c(c5)c(C)c(C)n6CCCN5CCN(C)CC5)c4)CC3)c2c1 equals 5.72
